- Tested on: A431
- ASSAY_METHOD_TEXT: LBPA endosome anti-LBPA integrated intensity (sum per cell), Z-score; higher = more LBPA staining
- RECORDED_CONDITIONS: compound concentration in added solution (µM; 5 µl added to 20 µl cells): 10; 18 h
Where a name gives a salt, the structure may show the parent alone.
MEASURED_PROPERTY: LBPA endosome anti-LBPA integrated intensity (z-score)

- COMPOUND: "Cc1noc(NS(=O)(=O)c2ccc(N)cc2)c1C [Sulfisoxazole]"
  REPORTED_RESULT: -0.641

Q. Entry CNC1(C)C2CCC(C2)C1(C)C (stereo unspecified) [Mecamylamine hydrochloride] has what LBPA endosome anti-LBPA integrated intensity (z-score)?
A. -0.608

Q. Entry CC[C@H]1OC(=O)[C@H](C)[C@@H](O[C@H]2C[C@@](C)(OC)[C@@H](O)[C@H](C)O2)[C@H](C)[C@@H](O[C@@H]2O[C@H](C)C[C@H](N(C)C)[C@H]2O)[C@](C)(O)C[C@@H](C)C(=O)[C@H](C)[C@@H](O)[C@]1(C)O [Erythromycin] has what LBPA endosome anti-LBPA integrated intensity (z-score)?
A. 0.476

Q. Entry CSc1ccc2c(c1)C(N1CCN(C)CC1)Cc1ccccc1S2 (stereo unspecified) [Methiothepin maleate] has what LBPA endosome anti-LBPA integrated intensity (z-score)?
A. 3.25

Q. Entry O=C(O)COC(=O)Cc1ccccc1Nc1c(Cl)cccc1Cl [Aceclofenac] has what LBPA endosome anti-LBPA integrated intensity (z-score)?
A. -0.449

---

- Tested on: A431
- ASSAY_METHOD_TEXT: whole-cell filipin (free cholesterol) integrated intensity, Z-score; higher = more cholesterol staining
- RECORDED_CONDITIONS: compound concentration in added solution (µM; 5 µl added to 20 µl cells): 10; 18 h
Where a name gives a salt, the structure may show the parent alone.
Definition: the class of an entry is the range in group A: < -0.6; group B: ≥ -0.6 and < -0.2; group C: ≥ -0.2 that contains its whole-cell filipin (z-score).

# count of solved cases: 4
- COMPOUND: "CCOC(=O)c1ccc(OC(=O)CCCCCNC(=N)N)cc1 [Gabexate mesilate]"
  TESTED_SYSTEM: "A431"
  CATEGORY: "group C"
- COMPOUND: "Nc1c(Br)cc(Br)cc1CN[C@H]1CC[C@H](O)CC1 [Ambroxol hydrochloride]"
  TESTED_SYSTEM: "A431"
  CATEGORY: "group B"
- COMPOUND: "N=C(N)NC(=O)c1nc(Cl)c(N)nc1N [Amiloride hydrochloride dihydrate]"
  TESTED_SYSTEM: "A431"
  CATEGORY: "group A"
- COMPOUND: "CN(C)CCOC(=O)COc1ccc(Cl)cc1 [Meclofenoxate hydrochloride]"
  TESTED_SYSTEM: "A431"
  CATEGORY: "group B"

Q. Using the reported whole-cell filipin (z-score), which band applies to CCCCCCCN(CC)CCCC(O)c1ccc(NS(C)(=O)=O)cc1 (centres undefined) [Ibutilide fumarate] ?
A. group C

Q. Using the reported whole-cell filipin (z-score), which band applies to N=C(N)c1ccc(OCCCCCOc2ccc(C(=N)N)cc2)cc1 [Pentamidine isethionate] ?
A. group B

Q. Using the reported whole-cell filipin (z-score), which band applies to Cc1cn([C@H]2C[C@H](N=[N+]=[N-])[C@@H](CO)O2)c(=O)[nH]c1=O [Zidovudine, AZT] ?
A. group A

Q. Using the reported whole-cell filipin (z-score), which band applies to CC1CCc2c(N3CCC(O)CC3)c(F)cc3c(=O)c(C(=O)O)cn1c23 (centres undefined) [Nadifloxacin] ?
A. group B
